# System: lacZ under control of the tetA promoter (PtetA) in E. coli KM3
# Format: cell-based
# assay_conditions: Table 4; ethametsulfuron 20 ppm; 48 hrs at 30° C.
recorded_metric: relative β-galactosidase activity, inducer Es
Please reply with the value in numeric form only.

## Input What measured relative β-galactosidase activity, inducer Es goes with L1-38: SU-responsive TetR(B) variant, library L1 hit (protein, Sulfonylurea responsive repressor L1-38) MGSRLDKSKVINSALELLNEVGIEGLTTRKLAQKLGVEQPTLYWHVKNKRALLDALAIEMADRHHTHFCPLEGESWQDFLRNNAKSMRCALLSHRDGAKVWLGTAWTEKQYETTENMLAFLCQQGFSLENALYAWRAVTMFTLGCVLRDQEWQVAKEERETPTTDSMPPLLRQALELGDHQGAEPAFLFGLELIICGLEKQLKCESGS ?
## Output 14.8

Data credit: patent US9206432B2
